Attribution: ChEMBL document CHEMBL3232992

Each record here notes measured Survival.
- Test system: L02
- assay_details: Hepatoprotective activity against carbon tetrachloride-induced toxicity in human HL-7702 cells assessed as increase of cell survival rate at 0.2 ug/ul pretreated for 12 hrs before carbon tetrachloride addition by MTS assay relative to control
- Format: functional
readout_kind: Survival

{"compound": "COc1cc2c(c(OC)c1OC)-c1c(c(Cl)c(OC)c(OC)c1OC)C[C@](C)(O)[C@@H](C)C2", "result": "44%"}
{"compound": "COc1c(O)c2c(c(I)c1OC)C[C@H](C)[C@H](C)Cc1c(I)c(OC)c(OC)c(OC)c1-2", "result": "50%"}
{"compound": "COc1cc2c(c(OC)c1OC)-c1c(c(I)c(OC)c(OC)c1OC)C[C@](C)(O)[C@@H](C)C2", "result": "40.9%"}
{"compound": "COc1c(Cl)c2c(c(OC)c1OC)-c1c(c(Cl)c3c(c1OC)OCO3)C[C@H](C)[C@H](C)C2", "result": "51.8%"}
{"compound": "COc1c(Br)c2c(c(OC)c1OC)-c1c(c(Br)c3c(c1OC)OCO3)C[C@H](C)[C@H](C)C2", "result": "63.4%"}
{"compound": "COc1c(Cl)c2c(c(OC)c1OC)-c1c(cc3c(c1OC)OCO3)C[C@H](C)[C@H](C)C2", "result": "43.4%"}
{"compound": "COc1cc2c(c(OC)c1OC)-c1c(cc(OC)c(OC)c1OC)C[C@](C)(O)[C@@H](C)C2", "result": "43.3%"}
{"compound": "COc1c(Cl)c2c(c(OC)c1OC)-c1c(c(Cl)c(OC)c(OC)c1OC)C[C@](C)(O)[C@@H](C)C2", "result": "44%"}
{"compound": "COc1c(Br)c2c(c(OC)c1OC)-c1c(c(Br)c(OC)c(OC)c1OC)C[C@](C)(O)[C@@H](C)C2", "result": "54.2%"}
{"compound": "COC1=C(OC)C(OC(C)=O)C2=C(C[C@H](C)[C@H](C)Cc3cc(OC)c(OC)c(OC)c32)C1=O (stereo partly specified)", "result": "52.7%"}
{"compound": "COc1c(Br)c2c(c(OC)c1OC)-c1c(cc3c(c1OC)OCO3)C[C@H](C)[C@H](C)C2", "result": "49.1%"}
{"compound": "COC1=C(OC)C23C(=CC1=O)CC(C)C2(C)Cc1cc(OC)c(OC)c(OC)c13 (stereo unspecified)", "result": "34.6%"}
{"compound": "COc1cc2c(c(OC)c1OC)-c1c(c(Br)c(OC)c(OC)c1OC)C[C@](C)(O)[C@@H](C)C2", "result": "50%"}
{"compound": "COC1=C(OC)C(=O)C2=C(C[C@H](C)[C@H](C)Cc3cc(OC)c(OC)c(OC)c32)C1=O", "result": "85.5%"}
{"compound": "COc1cc2c(c(OC)c1OC)-c1c(O)c(OC)c(OC)c(Cl)c1C[C@H](C)[C@H](C)C2", "result": "63%"}
{"compound": "COc1c(Br)c2c(c(OC)c1OC)-c1c(c(OC)c(OC)c(OC)c1OC)C[C@](C)(O)[C@@H](C)C2", "result": "73.6%"}
{"compound": "COC(=O)c1cc(OC)c2c(c1-c1c(C(=O)OC)cc(OC)c3c1OCO3)OCO2 [BIFENDATE]", "result": "40.3%"}
{"compound": "COc1cc2c(c(OC)c1OC)-c1c(cc(OC)c(OC)c1OC(C)=O)C[C@H](C)[C@H](C)C2", "result": "65%"}
{"compound": "COc1cc2c(c(O)c1OC)-c1c(cc(OC)c(OC)c1OC)C[C@@H](C)[C@@H](C)C2", "result": "48.1%"}
{"compound": "COc1c(O)c2c(c(Cl)c1OC)C[C@H](C)[C@H](C)Cc1c(Cl)c(OC)c(OC)c(OC)c1-2", "result": "98.5%"}
{"compound": "COc1cc2c(c(OC)c1OC)-c1c(cc3c(c1OC)OCO3)C[C@H](C)[C@H](C)C2", "result": "42.8%"}
{"compound": "COc1cc2c(c(OC)c1OC)-c1c(O)c(OC)c(OC)c(Br)c1C[C@H](C)[C@H](C)C2", "result": "82%"}
{"compound": "COc1c(OC)c(C(C)=O)c2c(c1OC)-c1c(cc3c(c1OC)OCO3)C[C@H](C)[C@H](C)C2", "result": "44.4%"}
{"compound": "COc1c(O)c2c(c(Br)c1OC)C[C@H](C)[C@H](C)Cc1c(Br)c(OC)c(OC)c(OC)c1-2", "result": "83%"}
{"compound": "COc1c(I)c2c(c(OC)c1OC)-c1c(c(I)c(OC)c(OC)c1OC)C[C@](C)(O)[C@@H](C)C2", "result": "45%"}
{"compound": "COc1c(I)c2c(c(OC)c1OC)-c1c(c(I)c3c(c1OC)OCO3)C[C@H](C)[C@H](C)C2", "result": "90%"}
